test system: MS2 coat protein; experiment: apparent KD of MS2 coat protein; designed switch direction (-1 OFF switch, 1 ON switch): 1; higher = weaker reporter binding; conditions: Eterna round: R95; input ligand: none
experimentalReadout: apparent KD of MS2 coat protein (nM)

primarySequence: CGUCCGGCCUGUGCUGGCCGGUAGCUUGUACAUGAGGAUCACCCAUGUUCUUGUGCAGGCUUUUUGCUCGUCUUGUG [salish99_mir208a_016] (puzzle: Sensor for hsa-mir-208a)
unitAbbrev: nM
valueMeasured: 452
//
primarySequence: CGACGCUGUCGAGAGGAUAUGCGGUGAUGGACAUGAGGAUCACCCAUGUUAGCGAUAGCAUUACGGUAGAAGGCUCUACAGCUGU [Soteed Omei mod 5] (puzzle: Same State 2)
unitAbbrev: nM
valueMeasured: 118
//
primarySequence: UAUAAACAUGAGGAUCACCCAUGUAAUAAUAUGGGAGGAUAUCAGAAUGUAUGUAUGUAAUGAGAAGGCCUAAUAU [Mat - Same State 1 - Mod of Eli - D70] (puzzle: Same State 1)
unitAbbrev: nM
valueMeasured: 1270
//
primarySequence: UCAAGCGUUUGGCUCGUCUUAUGUUUGGUACAUGAGGAUCACCCAUGUUAGGGACGAUCCAGUUAGAUGGAAUUUUG [JR_SHM208A_Sub036] (puzzle: Sensor for hsa-mir-208a)
unitAbbrev: nM
valueMeasured: 45.6
//
primarySequence: UAGAGAGGAAGCGAGGAUAUCGUGUGAGGUACAUGAGGAUCACCCAUGUUUGAUGUUGAGAGAGGCGAGAAGGCGCAGGAGAUAA [JR_SS2_Sub085] (puzzle: Same State 2)
unitAbbrev: nM
valueMeasured: 34.1
//
primarySequence: AUAAGUUCGAUGCUCGUCUCUCCGUACUAACAUGAGGAUCACCCAUGUGAUCGGGCAGUAGCCCGAUCAGUAUGGCC [Bizain] (puzzle: Sensor for hsa-mir-208a)
unitAbbrev: nM
valueMeasured: 114
//
primarySequence: UAGAAACAUGAGGAUCACCCAUGUGUCAAAGACAUAGGAUAUCAUAACUGGCGCCAGUUAUGAGAAGGGUGGUAAA [Belezaqu] (puzzle: Same State 1)
unitAbbrev: nM
valueMeasured: 170
//
primarySequence: AUAUAACAUGAGGAUCACCCAUGUCUCUAAAGUCGAGGAUAUGGGCAAAUAAUAUAAGAACCAGAAGGCGAAUUAU [SS1 Teenbexe 4] (puzzle: Same State 1)
unitAbbrev: nM
valueMeasured: 79.3
//
primarySequence: AUAAAACAUGAGGAUCACCCAUGUCAACAAAGUCGAGGAUAUGGGCAAAUAAAAUAAGAACCAGAAGGCGAAUAUU [salish99_ss1_r3_037] (puzzle: Same State 1)
unitAbbrev: nM
valueMeasured: 750
//
primarySequence: CUAUCUACAGGUGUCAGUGCUCGUCUUAUACAUGAGGAUCACCCAUGUUAUAGCCCGGUGCUUGCGCUGGGCUGAUU [JL ViennaUCT Tearor mod 4] (puzzle: Sensor for hsa-mir-208a)
unitAbbrev: nM
valueMeasured: 66.9

---

system: K4 kissing-loop RNA reporter; test: apparent KD of K4 kissing-loop reporter; higher = weaker reporter binding; conditions: Eterna round: R107; input ligand: arginine 13.2 mM
// reported apparent KD of K4 kissing-loop reporter for each item listed

primarySequence: CGCAGUGAUGUUGCGAAUAUAAUAACGGAAGGAGCGCGUGAAAACGCAGGUAGGUCGCCGUUUGGUAUGAUGGAAACAUCGUACC [Arginine A K4 11]
unitAbbrev: µM
apparent KD of K4 kissing-loop reporter: 0.138
//
primarySequence: GCUGAGGAGUGAUGUUCCAAGUGAUGUUAACGAGGACCGGUACGGCCGCCACUCGAUACGGCCGGACCGUAAGAUAAACUACAGC [Same State - Tryptophan A (Freestyle 7)]
unitAbbrev: µM
apparent KD of K4 kissing-loop reporter: 0.281
//
primarySequence: AGGACGGUUAUGGAUACCAGUCCGGAACUUGUCCAUGGAGUGAUGUUCCGUCCAGCUCCGGACCCUUGGCAGCCAGACUGCUGAA [theeternabot_sameState_KL_Theo_B_41]
unitAbbrev: µM
apparent KD of K4 kissing-loop reporter: 0.189

---

Let's look at some sequences and their measured apparent KD of MS2 coat protein.
test system: MS2 coat protein; experiment: apparent KD of MS2 coat protein; designed switch direction (-1 OFF switch, 1 ON switch): -1; higher = weaker reporter binding; conditions: input ligand: none
experimentalReadout: apparent KD of MS2 coat protein (nM)

primarySequence: UGUUGUCGCGCAGGAUAUGAGGAUCACCCAUAUGGAGGAUAUGAAAAGAAGGUUCUGAGGAUCACCCAGAAGGGCGGGACAACU [pwkr exNG2 2xF5 2xFMN.20] (Eterna round: R96, puzzle: Exclusion NG 2)
valueMeasured: 60.6
//
primarySequence: GUUUUCAGACGGAGAUCCUACAUGAGGAUCACCCAUGUCUCACUAGCUUUUUGCUCGUCUUAUCCUCCUCUGUUCUC [Elimod 28 - Jieux - Sensor, turn-off variant 1] (Eterna round: R97, puzzle: Sensor, turn-off variant 1)
valueMeasured: 460
//
primarySequence: AAGAAGAUAGGAUAUACGAGGAGAGGAGAGAAGAGGUGAGGACAUGAGGAUCACCCAUGUAGAAGGAUCAGGAA [JR_Exclu2_Sub063] (Eterna round: R96, puzzle: Exclusion 2)
valueMeasured: 109
//
primarySequence: UCUCGCGGGCAAGGAUAUCCUACGUUGUUCUGGCCCGUGCAUGUUACAUGAGGAUCACCCAUGUGGGAGAAGGUGCGCCAGGGC [Design 37] (Eterna round: R96, puzzle: Exclusion NG 2)
valueMeasured: 59.8

---

system: MS2 coat protein; assay: apparent KD of MS2 coat protein; designed switch direction (-1 OFF switch, 1 ON switch): 1; higher = weaker reporter binding; conditions: Eterna round: R95; input ligand: none

primarySequence: AGUCCAGCCAGAGCUGGACAAAAGCAUGUACAUGAGGAUCACCCAUGUUCAUGUACAAGCUUUUUGCUCGUCUUAAU [Mat - hsa-mir-208a - Mod of JL - 59] (puzzle: Sensor for hsa-mir-208a)
unitAbbrev: µM
apparent KD of MS2 coat protein: 0.553
--
primarySequence: AGUCCAGGCUGACCUGGACAAAAGCAUGUACAUGAGGAUCACCCAUGUCAUGUACAAGCUUUUUGCUCGUCUUAAAA [Mat - hsa-mir-208a - Mod of JL - D16] (puzzle: Sensor for hsa-mir-208a)
unitAbbrev: µM
apparent KD of MS2 coat protein: 0.637
--
primarySequence: UCUUGGUUUUUGCUCGUUUUUUGUGUUGAACAUGAGGAUCACCCAUGUAUUGUACGGUCCAAUUUAAUAAUGGUCCG [JMF 23] (puzzle: Sensor for hsa-mir-208a)
unitAbbrev: µM
apparent KD of MS2 coat protein: 0.0269
--
primarySequence: AGCUUGUAACAUGAGGAUCACCCAUGUACAAGCUUUUUGCUCGUUUUACCCGGGCCCGGCGAUUACACGGGCCCGGG [Optimized Design] (puzzle: Sensor for hsa-mir-208a version 2)
unitAbbrev: µM
apparent KD of MS2 coat protein: 0.00967
--
primarySequence: AGUCCAGCCUGAGCUGGACAAAAGCAUGUACAUGAGGAUCACCCAUGUCAUGUACAAGCUUUUUGCUAGUCUUAAAA [Mat - hsa-mir-208a - Mod of JL - D12] (puzzle: Sensor for hsa-mir-208a)
unitAbbrev: µM
apparent KD of MS2 coat protein: 0.551

---

test system: MS2 coat protein; assay: apparent KD of MS2 coat protein, switch ON state; designed switch direction (-1 OFF switch, 1 ON switch): -1; higher = weaker reporter binding; settings: FMN input: 0 or 200 uM; Eterna round: R93 (includes R88 designs)
experimentalReadout: apparent KD of MS2 coat protein (nM)

primarySequence: ACAGUUAGAGGAUAUACGUGGAAAAAUAAAAAUAAAAAACUACAUGAGGAUCACCCAUGUAGAAGGCUAACUGA [Ex2 Design 196: Random 12E]
experimentalReadout: apparent KD of MS2 coat protein
valueMeasured: 24.8

primarySequence: AACAAGUCAGGAUAUGCGAAAAGAAAAUAAGAUACACAAAAGCAGAAGGGACAUGAGGAUCACCCAUGUAAAUA [JR_Exc004_Sub011]
experimentalReadout: apparent KD of MS2 coat protein
valueMeasured: 36

primarySequence: AAGAAGUGAGGAUAUACGCGAACAAAAAAAAAAAAGAAAGCGUAGAAGGCACAUGAGGAUCACCCAUGUCCAAA
experimentalReadout: apparent KD of MS2 coat protein
valueMeasured: 27.7

primarySequence: GAAGAACAUGAGGAUCACCCAUGUCAGGAUAUGCAGAAGGGAAUAAUAACUUCUGGAAGCAGAAGGGACAAGAA [Ex 1 May 47]
experimentalReadout: apparent KD of MS2 coat protein
valueMeasured: 29.6

---

Attribute: apparent KD of K4 kissing-loop reporter
test system: K4 kissing-loop RNA reporter; experiment: apparent KD of K4 kissing-loop reporter; higher = weaker reporter binding; conditions: Eterna round: R107; input ligand: FMN 200 uM;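 also: bound reporter read as fluorescence of individual clusters on recovered sequencing chips by microscopy, with normalized cluster intensities fitted with a binding model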

primarySequence: UAUACUAGACAAGAGAGAAUUCUCUCAAGAGAGGAUAUCCGAAUUCGGAGAAGGCUCGCUAAGUGAUGUUUGGAAUAGUCUAGAA [AK4 SS FMN A]
apparent KD of K4 kissing-loop reporter: 418 nM
--
primarySequence: CACUUACGUAGUGAUGUUACGAUCUCUGAUACCAGACAACUCUAAGUCCCUUGGCAGCAGUCAUUUUGCUUCAAAUUUACUCAAA [JR_ExcTheophyA_Sub013]
apparent KD of K4 kissing-loop reporter: 691 nM
--
primarySequence: GCCGUAGUUGGAAGGAGCGUGAAUGGCCUCUAUCCAAAGUGAUGUUUUGUUGAAGACUGUUCACAGGUAGGUCGCCAACUACGGC [#09 K4 Arginine B Same State]
apparent KD of K4 kissing-loop reporter: 145 nM
--
primarySequence: CCAUCGCUAUUCGAUACCAGUCAGGAGGUCUUUGGCCUCCUAUUGGAGUGAUGUUCCAUAGACCCUUGGCAGCGAAUAGUGAUGG [Theophylline B K4 15]
apparent KD of K4 kissing-loop reporter: 822 nM
--
primarySequence: CAGCAUCUGAGUGGUAGCCAUUGAGAGAUGCAGGAUAUCUGGAAACAGAGAAGGGCAGUGAGUGAUGUUCACGGCUGGCUUGGUU
apparent KD of K4 kissing-loop reporter: 154 nM
--
primarySequence: UGUUAUGUAUCAGGAUAUUAGUGAUGUUUGUUUAUGUUAGUGAUGUUGAUAUUUGUUUUAUGUAUUUAAGAAGGGAUUGAGAAGU [ffcfxmullin]
apparent KD of K4 kissing-loop reporter: 62.1 nM
